- assay: Photochromic properties of photochromic cured product prepared by kneading method
- Format: physicochemical
- condition description: 1 mm cured product, 0.106 mmol per 100 g monomer, 23°C color optical density ε(300)-ε(0)
property measured: A23

Supply A23 value. Item: CCCC1(CCC)c2cc(OC)ccc2-c2c1c1c(c3cc(OC)ccc23)OC(c2ccc(OC)cc2)(c2ccc(N(C)c3ccccc3)cc2)C=C1 (stereo not drawn) [Example 3] 0.59 -

Supply A23 value. Item: CCCC1(CCC)c2cc(OC(F)(F)F)ccc2-c2c1c1c(c3cc(OC)c(Sc4c(C)cccc4C)cc23)OC(c2ccc(N(C)c3ccccc3)cc2)(c2ccc(OC)c(OC)c2)C=C1 (stereo not drawn) [Example 57] 0.86 -

Supply A23 value. Item: COCCN(c1ccccc1)c1ccc(C2(c3ccc4c(c3)OCCO4)C=Cc3c4c(c5cc6c(cc5c3O2)SC(C)(C)O6)-c2ccccc2C42CCC3(CCCCC3)CC2)cc1 (stereo not drawn) [Example 14] 0.59 -

Supply A23 value. Item: CCCC1(CCC)c2ccccc2-c2c1c1c(c3cc(OC)c(-c4ccc(OC)cc4OC)cc23)OC(c2ccc(C)cc2)(c2ccc(N(C)c3ccccc3)cc2)C=C1 (stereo not drawn) [Example 19] 0.87 -

Supply A23 value. Item: COc1ccc(C2(c3ccc(N(C)c4ccccc4)cc3)C=Cc3c4c(c5cc(-c6ccc(N7CCOCC7)cc6)c(OC)cc5c3O2)-c2ccccc2C4(C)C)cc1 (stereo not drawn) [Example 1] 0.96 -

Supply A23 value. Item: CCCCN(c1ccccc1)c1ccc(C2(c3ccc(C)cc3)C=Cc3c4c(c5cc(N6CCOCC6)c(OC)cc5c3O2)-c2ccccc2C4(CC)CC)cc1 (stereo not drawn) [Example 10] 1.41 -
